Assay: Aqueous stability of the compound assessed as compound degradation by measuring half life measured after 72 hrs by LC-MS analysis
Type: physicochemical
Details: aqueous solution
OBSERVATION_TYPE: half-life (h)

Examples with answers:
>>> df
                                   compound  observation_type  unit_descriptor  obs_value
0   NC(=O)/C=C/c1cc(C(F)(F)F)cc(C(F)(F)F)c1         half-life                h       53.3
1      N#C/C=C/c1cc(C(F)(F)F)cc(C(F)(F)F)c1         half-life                h        3.9
2  CC(Cl)C(=O)Nc1cc(C(F)(F)F)cc(C(F)(F)F)c1 (stereo unspecified)         half-life                h        2.5

(1) CC(CBr)C(=O)Nc1cc(C(F)(F)F)cc(C(F)(F)F)c1 (stereo unspecified)
(2) FC(F)(F)c1cc(S)cc(C(F)(F)F)c1
## Task For 1 and 2 , which recorded half-life is lower? State your choice using its label.
## Result 1
(1: 0.8 h, 2: 49.5 h)

(I) COC(=O)C#Cc1cc(C(F)(F)F)cc(C(F)(F)F)c1
(II) C=CC(=O)Oc1cc(C(F)(F)F)cc(C(F)(F)F)c1
(III) C#CC(=O)Oc1cc(C(F)(F)F)cc(C(F)(F)F)c1
(IV) CCOC(=O)/C=C/c1cc(C(F)(F)F)cc(C(F)(F)F)c1
## Task Ordering: ascending half-life. Your task in answering is to list the labels in the requested order.
## Result II, IV, I, III
(II: 0.5 h, IV: 2.4 h, I: 5.4 h, III: 26.7 h)
